Observed MIC, system S. epidermidis SEP-1024.
Could you give me the number in µg/mL? Just the number is fine.

Prompt: Value lookup for MIC; key = O=C(O)c1cn(C2CC2)c2cc(N3CCNCC3)c(F)cc2c1=O
Response: 0.25

Prompt: Given C=C[C@]1(C)C[C@@H](OC(=O)COc2ccc3c(c2F)B(O)OC3)[C@]2(C)[C@H](C)CC[C@]3(CCC(=O)[C@H]32)[C@@H](C)[C@@H]1O , state its recorded MIC.
Response: 0.063

====

- ASSAY_REMARKS: physchem
PARAMETER_MEASURED: logP
The response must contain the number and no unit.

Prompt: Look up logP for this molecule: C=C[C@]1(C)C[C@@H](OC(=O)COc2ccc3c(c2F)B(O)OC3)[C@]2(C)[C@H](C)CC[C@]3(CCC(=O)[C@H]32)[C@@H](C)[C@@H]1O
Response: 4.5

Taken from paper PMC10302868.
